TARGET_UNDER_TEST: 11-beta-hydroxysteroid dehydrogenase type 2 (Homo sapiens) (UniProt P80365)
Sequence (whole entry): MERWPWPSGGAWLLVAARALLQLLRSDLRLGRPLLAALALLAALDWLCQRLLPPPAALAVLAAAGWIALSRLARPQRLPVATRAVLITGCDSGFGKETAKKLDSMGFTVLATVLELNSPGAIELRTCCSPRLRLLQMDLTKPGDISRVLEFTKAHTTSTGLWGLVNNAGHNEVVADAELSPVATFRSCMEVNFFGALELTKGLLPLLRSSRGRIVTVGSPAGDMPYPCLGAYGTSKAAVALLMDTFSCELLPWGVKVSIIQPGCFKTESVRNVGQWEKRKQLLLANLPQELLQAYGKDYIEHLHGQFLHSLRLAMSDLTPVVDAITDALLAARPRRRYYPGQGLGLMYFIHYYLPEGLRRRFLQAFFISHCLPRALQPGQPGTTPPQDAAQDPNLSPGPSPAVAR
CONDITION_CONTEXT: HEK293, at 200 nM
Description: Inhibition of human 11beta-HSD2 expressed in HEK293 cells assessed as residual conversion of [1,2,6,7-[3H]cortisol to cortisone at 200 nM after 10 mins by scintillation counting
PROPERTY: residual activity (%)
Give your result in % as a bare value.

CC(=O)O[C@H]1CC[C@]2(C)[C@H]3C(=O)C=C4[C@@H]5C[C@@](C)(NC(=O)NCCO)CC[C@]5(C)CC[C@@]4(C)[C@]3(C)CC[C@H]2C1(C)C	38
CC1(C)[C@@H](O)CC[C@]2(C)C3=CC(=O)[C@H]4[C@@H]5C[C@@](C)(C(=O)O)CC[C@]5(C)CC[C@@]4(C)[C@]3(C)CC[C@@H]12	85
CC(=O)O[C@H]1CC[C@]2(C)[C@H]3C(=O)C=C4[C@@H]5C[C@@](C)(NC(=O)NS(C)(=O)=O)CC[C@]5(C)CC[C@@]4(C)[C@]3(C)CC[C@H]2C1(C)C	20
CC(=O)O[C@H]1CC[C@]2(C)[C@H]3C(=O)C=C4[C@@H]5C[C@@](C)(NC(=O)N(C)O)CC[C@]5(C)CC[C@@]4(C)[C@]3(C)CC[C@H]2C1(C)C	110
CC(=O)O[C@H]1CC[C@]2(C)[C@H]3C(=O)C=C4[C@@H]5C[C@@](C)(NC(=O)NO)CC[C@]5(C)CC[C@@]4(C)[C@]3(C)CC[C@H]2C1(C)C	34

Prompt: What does the data say about its residual activity? Entry: `CC1(C)[C@@H](Oc2noc(=O)[nH]2)CC[C@]2(C)[C@H]3C(=O)C=C4[C@@H]5C[C@@](C)(NC(N)=O)CC[C@]5(C)CC[C@@]4(C)[C@]3(C)CC[C@@H]12`
Completion: 24

Prompt: What does the data say about its residual activity? Entry: `CC(=O)O[C@H]1CC[C@]2(C)[C@H]3C(=O)C=C4[C@@H]5C[C@@](C)(NC(=O)N(CCO)CCO)CC[C@]5(C)CC[C@@]4(C)[C@]3(C)CC[C@H]2C1(C)C`
Completion: 93

* * *

TARGET_UNDER_TEST: 11-beta-hydroxysteroid dehydrogenase 1 (Homo sapiens, UniProt P28845)
Sequence (P28845 whole entry): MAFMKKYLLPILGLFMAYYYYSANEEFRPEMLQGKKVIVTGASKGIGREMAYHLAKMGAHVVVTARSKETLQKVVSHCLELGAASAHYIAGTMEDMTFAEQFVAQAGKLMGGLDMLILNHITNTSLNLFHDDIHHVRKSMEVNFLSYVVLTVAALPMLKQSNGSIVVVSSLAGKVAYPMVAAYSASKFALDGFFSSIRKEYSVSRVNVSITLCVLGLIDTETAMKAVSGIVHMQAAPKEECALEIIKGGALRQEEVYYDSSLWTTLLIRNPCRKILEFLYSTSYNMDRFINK
ASSAY_REMARKS: Inhibition of human recombinant 11beta-HSD1 expressed in HEK293 cells assessed as conversion of [1,2-[3H]cortisone to cortisol after 10 mins by scintillation counting
Recorded IC50 values for a group of compounds are listed next.

Below, each entry is followed by its recorded IC50 result.
CC1(C)[C@@H](Oc2noc(=O)[nH]2)CC[C@]2(C)[C@H]3C(=O)C=C4[C@@H]5C[C@@](C)(NC(N)=O)CC[C@]5(C)CC[C@@]4(C)[C@]3(C)CC[C@@H]12	> 40 µM
CN(O)C(=O)[C@@]1(C)CC[C@]2(C)CC[C@]3(C)C(=CC(=O)[C@@H]4[C@@]5(C)CCC(=O)NC(C)(C)[C@@H]5CC[C@]43C)[C@@H]2C1	> 40 µM

Prompt: What does the data say about its IC50? Entry: `CC1(C)C(=O)CC[C@]2(C)[C@H]3C(=O)C=C4[C@@H]5C[C@@](C)(NC(N)=O)CC[C@]5(C)CC[C@@]4(C)[C@]3(C)CC[C@@H]12`
Completion: > 10 µM
